Recorded pIC50 values for a group of molecules are listed next.
- Experimental system: Cholecystokinin receptor type A (Homo sapiens, UniProt P32238)
- Sequence (P32238 whole entry): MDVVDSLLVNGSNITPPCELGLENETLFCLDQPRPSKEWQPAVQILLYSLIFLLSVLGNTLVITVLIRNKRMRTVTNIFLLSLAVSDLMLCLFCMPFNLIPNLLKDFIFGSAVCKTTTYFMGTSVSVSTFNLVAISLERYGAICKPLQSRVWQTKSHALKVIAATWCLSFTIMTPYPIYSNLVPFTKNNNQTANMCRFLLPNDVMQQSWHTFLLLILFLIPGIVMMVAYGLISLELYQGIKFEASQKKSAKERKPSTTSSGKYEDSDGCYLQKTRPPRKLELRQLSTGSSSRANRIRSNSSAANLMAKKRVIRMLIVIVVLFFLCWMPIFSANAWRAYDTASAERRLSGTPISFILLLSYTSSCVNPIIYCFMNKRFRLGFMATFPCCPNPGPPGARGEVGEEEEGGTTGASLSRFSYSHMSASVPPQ
- Test details: Displacement of [125I]-CCK-8 from human CCK1R expressed in human 1321N1 cell membranes after 2 hrs by SPA assay
Numbered stars: 1 amine (or outer) side, 2 acyl side, 3 side chain; on linkers, the order of the positions; unused ones are H or OH. Square brackets hold non-standard residues; d marks the D form. Peptide text beside a SMILES is read from it. * marks the point of attachment. sY = N[C@@H](Cc1ccc(OS(=O)(=O)O)cc1)C(=O)O; C18 diacid = O=C(O)CCCCCCCCCCCCCCCCC(=O)*; γGlu = O=C(O)[C@H](CCC(=O)[*:2])N[*:1]; Nle = CCCC[C@H](N)C(=O)O; AEEA = NCCOCCOCC(=O)O
# pIC50 is unitless: minus log10 of the molar concentration; print number only

Sample records with pIC50:
Molecule: CCCC[C@H](NC(=O)[C@H](Cc1c[nH]c2ccccc12)NC(=O)CNC(=O)[C@H](CC(C)C)NC(=O)[C@H](Cc1ccc(OS(=O)(=O)O)cc1)NC(=O)[C@H](CC(=O)O)NC(=O)COCCOCCNC(=O)COCCOCCNC(=O)CC[C@H](NC(=O)CCCCCCCCCCCCCCCCC(=O)O)C(=O)O)C(=O)N[C@@H](CC(=O)O)C(=O)N(C)[C@@H](Cc1ccccc1)C(N)=O
pIC50: 10.06

Molecule: CCCC[C@H](NC(=O)[C@H](Cc1c[nH]c2ccccc12)NC(=O)[C@H](CCCCN)NC(=O)[C@H](CCCC)NC(=O)[C@H](Cc1ccc(OS(=O)(=O)O)cc1)NC(=O)[C@H](CC(=O)O)NC(=O)COCCOCCNC(=O)COCCOCCNC(=O)CC[C@H](NC(=O)CCCCCCCCCCCCCCCCC(=O)O)C(=O)O)C(=O)N[C@@H](CC(=O)O)C(=O)N[C@@H](Cc1ccccc1)C(N)=O ({C18 diacid-γGlu-AEEA-AEEA}-D[sY][Nle]KW[Nle]DF-NH2)
pIC50: 5.59

Molecule: CCCC[C@H](NC(=O)[C@H](Cc1ccc(OS(=O)(=O)O)cc1)NC(=O)[C@H](CC(=O)O)NC(=O)COCCOCCNC(=O)COCCOCCNC(=O)CC[C@H](NC(=O)CCCCCCCCCCCCCCCCC(=O)O)C(=O)O)C(=O)NCC(=O)N[C@@H](Cc1c[nH]c2ccccc12)C(=O)N[C@@H](CCC(N)=O)C(=O)N[C@@H](CC(=O)O)C(=O)N[C@@H](Cc1ccccc1)C(N)=O ({C18 diacid-γGlu-AEEA-AEEA}-D[sY][Nle]GWQDF-NH2)
pIC50: 9.03

Molecule: CCCC[C@H](NC(=O)[C@H](Cc1c[nH]c2ccccc12)NC(=O)CNC(=O)[C@H](CC(C)C)NC(=O)[C@H](Cc1ccc(OS(=O)(=O)O)cc1)NC(=O)[C@H](CC(=O)O)NC(=O)CCCCCCCCCCCCCCCCC(=O)O)C(=O)N(C)[C@H](CC(=O)O)C(=O)N(C)[C@@H](Cc1ccccc1)C(N)=O
pIC50: 9.97

Consider the additional molecule presented here.
Query (molecule): CCCC[C@H](NC(=O)[C@H](Cc1c[nH]c2ccccc12)NC(=O)[C@@H]1CCCN1C(=O)[C@H](CCCC)NC(=O)[C@H](Cc1ccc(OS(=O)(=O)O)cc1)NC(=O)[C@H](CC(=O)O)NC(=O)COCCOCCNC(=O)COCCOCCNC(=O)CC[C@H](NC(=O)CCCCCCCCCCCCCCCCC(=O)O)C(=O)O)C(=O)N[C@@H](CC(=O)O)C(=O)N[C@@H](Cc1ccccc1)C(N)=O ({C18 diacid-γGlu-AEEA-AEEA}-D[sY][Nle]PW[Nle]DF-NH2) ; field requested: pIC50
6.03

---

- Experimental system: Cholecystokinin receptor type A (Homo sapiens)
- Test details: Displacement of [125I]-CCK-8 from human CCK1R expressed in human 1321N1 cell membranes after 2 hrs by SPA assay
Numbered stars: 1 amine (or outer) side, 2 acyl side, 3 side chain; on linkers, the order of the positions; unused ones are H or OH. Square brackets hold non-standard residues; d marks the D form. Peptide text beside a SMILES is read from it. * marks the point of attachment. C18 diacid = O=C(O)CCCCCCCCCCCCCCCCC(=O)*; γGlu = O=C(O)[C@H](CCC(=O)[*:2])N[*:1]; NMeF = CN[C@@H](Cc1ccccc1)C(=O)O; NMeD = CN[C@@H](CC(=O)O)C(=O)O; Nle = CCCC[C@H](N)C(=O)O; AEEA = NCCOCCOCC(=O)O
Value type: pIC50
The response must contain the number and no unit.

Given the compound CCCC[C@H](NC(=O)[C@H](Cc1c[nH]c2ccccc12)NC(=O)CNC(=O)[C@H](CC(C)C)NC(=O)[C@H](Cc1c[nH]c2ccccc12)NC(=O)[C@H](CC(=O)O)NC(=O)COCCOCCNC(=O)COCCOCCNC(=O)CC[C@H](NC(=O)CCCCCCCCCCCCCCCCC(=O)O)C(=O)O)C(=O)N(C)[C@@H](CC(=O)O)C(=O)N(C)[C@@H](Cc1ccccc1)C(N)=O ({C18 diacid-γGlu-AEEA-AEEA}-DWLGW[Nle][NMeD][NMeF]-NH2) , what is its reported pIC50?
8.57

---

Property: pEC50; scope: individual molecules
- Experimental system: Cholecystokinin receptor type A (Homo sapiens)
- Test details: Agonist activity at human CCK1R expressed in human 1321N1 cells assessed as IP1 accumulation after 1 hr by HTRF assay
- Format: functional, cell-based
Numbered stars: 1 amine (or outer) side, 2 acyl side, 3 side chain; on linkers, the order of the positions; unused ones are H or OH. Square brackets hold non-standard residues; d marks the D form. Peptide text beside a SMILES is read from it. * marks the point of attachment. Phe(4-CH2SO3H) = N[C@@H](Cc1ccc(CS(=O)(=O)O)cc1)C(=O)O; sY = N[C@@H](Cc1ccc(OS(=O)(=O)O)cc1)C(=O)O; C18 diacid = O=C(O)CCCCCCCCCCCCCCCCC(=O)*; γGlu = O=C(O)[C@H](CCC(=O)[*:2])N[*:1]; NMeF = CN[C@@H](Cc1ccccc1)C(=O)O; NMeD = CN[C@@H](CC(=O)O)C(=O)O; Nle = CCCC[C@H](N)C(=O)O; X1 = O=C(Cc1ccc(O)cc1)*; AEEA = NCCOCCOCC(=O)O
Field pEC50 (float): negative decimal logarithm of the concentration in molar.

// solved cases for pEC50 follow
Molecule: CCCC[C@H](NC(=O)[C@H](Cc1c[nH]c2ccccc12)NC(=O)CNC(=O)[C@H](CC(C)C)NC(=O)[C@H](Cc1ccc(CS(=O)(=O)O)cc1)NC(=O)[C@H](CC(=O)O)NC(=O)COCCOCCNC(=O)COCCOCCNC(=O)CC[C@H](NC(=O)CCCCCCCCCCCCCCCCC(=O)O)C(=O)O)C(=O)N[C@@H](CC(=O)O)C(=O)N[C@@H](Cc1ccccc1)C(N)=O ({C18 diacid-γGlu-AEEA-AEEA}-D[Phe(4-CH2SO3H)]LGW[Nle]DF-NH2)
pEC50: 10.17
--
Molecule: CCCC[C@H](NC(=O)Cc1ccc(O)cc1)C(=O)NCC(=O)N[C@@H](Cc1c[nH]c2ccccc12)C(=O)N[C@@H](CCCC)C(=O)N(C)[C@@H](CC(=O)O)C(=O)N(C)[C@@H](Cc1ccccc1)C(N)=O (X1-[Nle]GW[Nle][NMeD][NMeF]-NH2)
pEC50: 8.07

Now for a further molecule.
What does the data say about its pEC50? Entry: CCCC[C@H](NC(=O)[C@H](Cc1ccc(OS(=O)(=O)O)cc1)NC(=O)[C@H](CC(=O)O)NC(=O)COCCOCCNC(=O)COCCOCCNC(=O)CC[C@H](NC(=O)CCCCCCCCCCCCCCCCC(=O)O)C(=O)O)C(=O)NCC(=O)N[C@@H](Cc1c[nH]c2ccccc12)C(=O)N[C@@H](CCCC)C(=O)N[C@@H](CC(N)=O)C(=O)N[C@@H](Cc1ccccc1)C(N)=O ({C18 diacid-γGlu-AEEA-AEEA}-D[sY][Nle]GW[Nle]NF-NH2)
7.93

---

- Test system: Sus scrofa
- Test details: Anti-obesity activity in lean Landrace Yorkshire Duroc pig assessed as food intake at 30 nmol/kg, sc measured at 72 to 96 hrs post dose (reference value: 1.8 to 2.1 kg)
- Type: functional
Numbered stars: 1 amine (or outer) side, 2 acyl side, 3 side chain; on linkers, the order of the positions; unused ones are H or OH. Square brackets hold non-standard residues; d marks the D form. Peptide text beside a SMILES is read from it. * marks the point of attachment. Phe(4-CH2SO3H) = N[C@@H](Cc1ccc(CS(=O)(=O)O)cc1)C(=O)O; C18 diacid = O=C(O)CCCCCCCCCCCCCCCCC(=O)*; γGlu = O=C(O)[C@H](CCC(=O)[*:2])N[*:1]; βAsp = O=C(O)[C@H](CC(=O)[*:2])N[*:1]; NMeF = CN[C@@H](Cc1ccccc1)C(=O)O; dNMeD = CN[C@H](CC(=O)O)C(=O)O; Nle = CCCC[C@H](N)C(=O)O; AEEA = NCCOCCOCC(=O)O
Value type: Activity (kg)
Answer in kg, number only, no unit symbol.

These solved cases illustrate the format of a correct answer.
Molecule: CCCC[C@H](NC(=O)[C@H](Cc1c[nH]c2ccccc12)NC(=O)CNC(=O)[C@H](CC(C)C)NC(=O)[C@H](Cc1ccc(O)cc1)NC(=O)[C@H](CC(=O)O)NC(=O)COCCOCCNC(=O)COCCOCCNC(=O)CC[C@H](NC(=O)CCCCCCCCCCCCCCCCC(=O)O)C(=O)O)C(=O)N(C)[C@@H](CC(=O)O)C(=O)N(C)[C@@H](Cc1ccccc1)C(N)=O
Experimental system: Sus scrofa
Activity [kg]: 2.3

Molecule: CCCC[C@H](NC(=O)[C@H](Cc1ccc(CS(=O)(=O)O)cc1)NC(=O)C[C@H](NC(=O)COCCOCCNC(=O)COCCOCCNC(=O)CC[C@H](NC(=O)CCCCCCCCCCCCCCCCC(=O)O)C(=O)O)C(=O)O)C(=O)NCC(=O)N[C@@H](Cc1c[nH]c2ccccc12)C(=O)N[C@@H](CCCC)C(=O)N(C)[C@H](CC(=O)O)C(=O)N(C)[C@@H](Cc1ccccc1)C(N)=O ({C18 diacid-γGlu-AEEA-AEEA-βAsp}-[Phe(4-CH2SO3H)][Nle]GW[Nle][dNMeD][NMeF]-NH2)
Experimental system: Sus scrofa
Activity [kg]: 1.7

From here, focus on the item given below.
Consider the molecule CCCC[C@H](NC(=O)[C@H](Cc1ccc(CS(=O)(=O)O)cc1)NC(=O)[C@H](CC(=O)O)NC(=O)COCCOCCNC(=O)COCCOCCNC(=O)CC[C@H](NC(=O)CCCCCCCCCCCCCCCCC(=O)O)C(=O)O)C(=O)NCC(=O)N[C@@H](Cc1c[nH]c2ccccc12)C(=O)N[C@@H](CCCC)C(=O)N(C)[C@H](CC(=O)O)C(=O)N(C)[C@@H](Cc1ccccc1)C(N)=O ({C18 diacid-γGlu-AEEA-AEEA}-D[Phe(4-CH2SO3H)][Nle]GW[Nle][dNMeD][NMeF]-NH2) and give its measured Activity.
1.9
